biological target: EGFR L858R/C797S Ba/F3 cells (Homo sapiens, UniProt P00533, C797S/L858R, cells depend on it); experiment: Ba/F3 cell proliferation (Cell Titer Glo), EGFR L858R/C797S; type: cell-based, murine; settings: 72 hours exposure, read-out: L858R/C797S (μM), inhibitory activity against EGFR mutants
Sequence (P00533 whole entry C797S/L858R): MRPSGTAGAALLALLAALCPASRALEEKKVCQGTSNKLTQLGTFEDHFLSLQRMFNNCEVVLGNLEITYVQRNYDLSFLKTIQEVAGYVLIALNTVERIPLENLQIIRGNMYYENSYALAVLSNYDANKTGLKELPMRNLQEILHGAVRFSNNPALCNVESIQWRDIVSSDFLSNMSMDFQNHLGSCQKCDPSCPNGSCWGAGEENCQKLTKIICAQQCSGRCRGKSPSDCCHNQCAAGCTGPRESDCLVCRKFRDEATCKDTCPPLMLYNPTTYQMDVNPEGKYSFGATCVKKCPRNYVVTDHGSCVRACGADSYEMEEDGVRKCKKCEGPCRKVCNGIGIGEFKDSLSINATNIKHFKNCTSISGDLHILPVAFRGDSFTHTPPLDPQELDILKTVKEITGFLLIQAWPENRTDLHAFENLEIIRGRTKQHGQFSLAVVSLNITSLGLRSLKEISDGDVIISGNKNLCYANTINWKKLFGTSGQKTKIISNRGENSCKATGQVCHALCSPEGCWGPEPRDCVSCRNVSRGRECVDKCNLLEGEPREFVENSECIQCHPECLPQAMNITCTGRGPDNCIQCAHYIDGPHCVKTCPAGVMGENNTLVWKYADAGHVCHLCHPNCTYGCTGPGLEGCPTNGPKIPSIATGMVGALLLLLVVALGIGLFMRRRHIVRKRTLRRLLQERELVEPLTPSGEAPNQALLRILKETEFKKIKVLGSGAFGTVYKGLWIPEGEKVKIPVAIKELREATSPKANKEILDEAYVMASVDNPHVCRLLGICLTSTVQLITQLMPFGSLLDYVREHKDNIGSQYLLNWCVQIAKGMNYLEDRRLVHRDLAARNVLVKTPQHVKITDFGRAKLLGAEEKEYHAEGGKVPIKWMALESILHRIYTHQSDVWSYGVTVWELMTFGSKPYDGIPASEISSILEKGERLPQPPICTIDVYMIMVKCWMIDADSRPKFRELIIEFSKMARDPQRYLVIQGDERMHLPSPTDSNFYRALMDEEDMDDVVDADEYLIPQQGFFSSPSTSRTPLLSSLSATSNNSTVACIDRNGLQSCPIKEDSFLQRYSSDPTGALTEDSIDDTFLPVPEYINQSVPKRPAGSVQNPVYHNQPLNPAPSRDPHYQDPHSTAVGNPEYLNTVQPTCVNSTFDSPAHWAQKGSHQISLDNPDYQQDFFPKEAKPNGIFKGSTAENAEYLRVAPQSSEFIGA
Property: GI50; scope: individual compounds
Observable: GI50

- Compound: "C=CC(=O)N1CCN(c2cc3cnc(Nc4ccc(N5CCN(C)CC5)cc4)nc3n(C)c2=O)C2CC21 (stereo not shown)"
  Result: "≥ 2.5 µM"
- Compound: "C=CC(=O)N1CCN(c2cc3cnc(N)nc3n(-c3ccc(OCCN(C)C)nc3)c2=O)c2cccc(C)c21"
  Result: "0.5 to 2.5 µM"
- Compound: "C=CC(=O)N1CCN(c2cc3cnc(Nc4cc5n(c4)CCN(C)C5)nc3n(C)c2=O)c2cccc(C)c21"
  Result: "≥ 2.5 µM"
- Compound: "C=CC(=O)N1CCN(c2cc3cnc(Nc4ccc(N5CCN(C)CC5)c(F)c4)nc3n(C)c2=O)c2cccc(C)c21"
  Result: "≤ 0.25 µM"
- Compound: "C=CC(=O)N1CCN(c2cc3cnc(NC4CC4)nc3n(-c3ccc(N(C)CCN(C)C)cc3)c2=O)c2cccc(C)c21"
  Result: "≤ 0.25 µM"
- Compound: "C=CC(=O)N1CCN(c2cc3cnc(NC4CC4)nc3n(C3CCOC3)c2=O)c2cccc(C)c21 (stereo not shown)"
  Result: "≤ 0.25 µM"
- Compound: "C=CC(=O)N1CCN(c2cc3cnc(Nc4ccc(OCCN5CCCC5)cc4)nc3n(C)c2=O)c2cccc(C)c21"
  Result: "≤ 0.25 µM"
- Compound: "C=CC(=O)N1CCN(c2cc3cnc(Nc4ccc(N5CCN(C)CC5)cc4OC)nc3n(C)c2=O)c2cccc(C)c21"
  Result: "≤ 0.25 µM"
- Compound: "CCC(=O)N1CCN(c2cc3cnc(Nc4ccc(N5CCN(C)CC5)cc4)nc3n(C)c2=O)c2cccc(C)c21"
  Result: "0.5 to 2.5 µM"
- Compound: "C=CC(=O)NC1CCCN(c2cc3cnc(Nc4cnn(CCO)c4)nc3n(C)c2=O)C1 (stereo not shown)"
  Result: "≥ 2.5 µM"

* * *

biological target: EGFR mutant L858R Ba/F3 cells (Homo sapiens, UniProt P00533, L858R, cells depend on it); test: Ba/F3 cell proliferation (Cell Titer Glo), EGFR L858R; type: cell-based, murine; settings: 72 hours exposure, read-out: L858R BaF3 (μM), inhibitory activity against EGFR mutants
Sequence (P00533 whole entry L858R): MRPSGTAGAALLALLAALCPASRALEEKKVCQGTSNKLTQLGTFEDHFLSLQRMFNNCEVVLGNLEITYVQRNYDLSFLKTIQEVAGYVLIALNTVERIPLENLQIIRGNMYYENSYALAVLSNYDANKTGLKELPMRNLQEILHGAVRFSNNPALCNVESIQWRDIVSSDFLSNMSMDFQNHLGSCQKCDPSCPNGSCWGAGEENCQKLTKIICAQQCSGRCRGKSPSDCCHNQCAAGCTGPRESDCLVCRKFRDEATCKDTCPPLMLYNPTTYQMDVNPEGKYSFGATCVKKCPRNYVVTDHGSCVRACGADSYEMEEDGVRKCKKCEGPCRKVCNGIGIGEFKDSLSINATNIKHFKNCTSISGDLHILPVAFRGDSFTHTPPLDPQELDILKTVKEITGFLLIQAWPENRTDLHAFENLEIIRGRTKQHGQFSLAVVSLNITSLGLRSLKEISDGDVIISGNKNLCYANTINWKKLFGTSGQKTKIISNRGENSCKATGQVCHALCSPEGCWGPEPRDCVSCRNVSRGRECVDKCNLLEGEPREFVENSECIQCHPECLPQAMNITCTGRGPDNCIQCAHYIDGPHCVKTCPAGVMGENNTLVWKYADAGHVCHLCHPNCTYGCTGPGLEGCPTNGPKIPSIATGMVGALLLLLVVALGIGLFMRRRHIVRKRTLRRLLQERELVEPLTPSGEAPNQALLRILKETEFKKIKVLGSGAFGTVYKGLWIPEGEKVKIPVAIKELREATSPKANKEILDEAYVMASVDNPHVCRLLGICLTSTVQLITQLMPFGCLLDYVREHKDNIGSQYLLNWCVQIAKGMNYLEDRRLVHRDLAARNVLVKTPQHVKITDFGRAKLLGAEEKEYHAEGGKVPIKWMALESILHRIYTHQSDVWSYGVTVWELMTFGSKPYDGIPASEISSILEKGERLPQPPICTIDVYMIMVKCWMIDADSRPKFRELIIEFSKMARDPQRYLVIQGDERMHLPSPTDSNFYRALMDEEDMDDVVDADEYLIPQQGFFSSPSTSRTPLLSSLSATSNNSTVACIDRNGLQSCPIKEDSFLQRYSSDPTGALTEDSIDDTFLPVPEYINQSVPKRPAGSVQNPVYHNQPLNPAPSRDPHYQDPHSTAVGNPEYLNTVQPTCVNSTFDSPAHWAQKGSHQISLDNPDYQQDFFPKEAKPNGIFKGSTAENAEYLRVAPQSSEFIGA
Property: GI50; scope: individual compounds
Observable: GI50

- Compound: "C=CC(=O)N1CCN(c2cc3cnc(Nc4ccc(N5CCN(C)CC5)c(F)c4)nc3n(C)c2=O)c2cccc(C)c21 [Compound 040]"
  Assay System: "EGFR mutant L858R Ba/F3 cells (Homo sapiens, UniProt P00533, L858R, cells depend on it)"
  Result: "≤ 0.25 µM"
- Compound: "C=CC(=O)N1CCN(c2cc3cnc(NC4CC4)nc3n(C3CCN(C)CC3)c2=O)c2cccc(C)c21 [Compound 105]"
  Assay System: "EGFR mutant L858R Ba/F3 cells (Homo sapiens, UniProt P00533, L858R, cells depend on it)"
  Result: "≤ 0.25 µM"
- Compound: "C=CC(=O)N1CCN(c2cc3cnc(Nc4ccc(OCCN(C)C)cc4)nc3n(C3CC(F)(F)C3)c2=O)c2cccc(C)c21 [Compound 055]"
  Assay System: "EGFR mutant L858R Ba/F3 cells (Homo sapiens, UniProt P00533, L858R, cells depend on it)"
  Result: "≤ 0.25 µM"
- Compound: "C=CC(=O)N1CCN(c2cc3cnc(Nc4ccccc4)nc3n([C@H]3C[C@H](O)C3)c2=O)c2cccc(C)c21 [Compound 070]"
  Assay System: "EGFR mutant L858R Ba/F3 cells (Homo sapiens, UniProt P00533, L858R, cells depend on it)"
  Result: "≤ 0.25 µM"
- Compound: "C=CC(=O)N1CCN(c2cc3cnc(N)nc3n(-c3cccc(OC)c3)c2=O)c2cccc(C)c21 [Compound 090]"
  Assay System: "EGFR mutant L858R Ba/F3 cells (Homo sapiens, UniProt P00533, L858R, cells depend on it)"
  Result: "≤ 0.25 µM"
- Compound: "C=CC(=O)Nc1ccccc1Oc1cc2cnc(Nc3ccc(N4CCN(C)CC4)cc3)nc2n(C2CCCN(C(C)=O)C2)c1=O (centres unmarked) [Compound 007]"
  Assay System: "EGFR mutant L858R Ba/F3 cells (Homo sapiens, UniProt P00533, L858R, cells depend on it)"
  Result: "0.25 to 0.5 µM"
- Compound: "C=C(F)C(=O)N1CCN(c2cc3cnc(Nc4ccc(N5CCN(C)CC5)cc4)nc3n(C)c2=O)c2cccc(C)c21 [Compound 028]"
  Assay System: "EGFR mutant L858R Ba/F3 cells (Homo sapiens, UniProt P00533, L858R, cells depend on it)"
  Result: "≤ 0.25 µM"
- Compound: "C=CC(=O)Nc1ccccc1Oc1cc2cnc(Nc3ccc(N4CCN(C)CC4)cc3)nc2n(-c2cccc(NC(C)=O)c2)c1=O [Compound 008]"
  Assay System: "EGFR mutant L858R Ba/F3 cells (Homo sapiens, UniProt P00533, L858R, cells depend on it)"
  Result: "0.5 to 2.5 µM"
- Compound: "C=CC(=O)N1CCN(c2cc3cnc(Nc4ccc(CS(=O)(=O)NC)cc4)nc3n(C)c2=O)c2cccc(O)c21 [Compound 053]"
  Assay System: "EGFR mutant L858R Ba/F3 cells (Homo sapiens, UniProt P00533, L858R, cells depend on it)"
  Result: "≤ 0.25 µM"
- Compound: "C=CC(=O)N1CCN(c2cc3cnc(Nc4ccc(N5CCN(C)CC5)cc4)nc3n(C)c2=O)c2cccc(C)c21 [Compound 019]"
  Assay System: "EGFR mutant L858R Ba/F3 cells (Homo sapiens, UniProt P00533, L858R, cells depend on it)"
  Result: "≤ 0.25 µM"
- Compound: "C=CC(=O)N1CCc2cccc(Oc3cc4cnc(Nc5ccc(N6CCN(C)CC6)cc5)nc4n(C)c3=O)c21 [Compound 003]"
  Assay System: "EGFR mutant L858R Ba/F3 cells (Homo sapiens, UniProt P00533, L858R, cells depend on it)"
  Result: "0.5 to 2.5 µM"
- Compound: "C=CC(=O)Nc1ccccc1Oc1cc2cnc(Nc3ccc(N4CCN(C)CC4)nc3)nc2n(C)c1=O [Compound 005]"
  Assay System: "EGFR mutant L858R Ba/F3 cells (Homo sapiens, UniProt P00533, L858R, cells depend on it)"
  Result: "0.5 to 2.5 µM"
- Compound: "C=CC(=O)N1CCN(c2cc3cnc(Nc4ccc(N5CCN(C)CC5)cc4)nc3n(C)c2=O)CC1 [Compound 009]"
  Assay System: "EGFR mutant L858R Ba/F3 cells (Homo sapiens, UniProt P00533, L858R, cells depend on it)"
  Result: "≥ 2.5 µM"
- Compound: "C=CC(=O)N1CCN(c2cc3cnc(Nc4ccc(N5CCN(C)CC5)cc4)nc3n(C)c2=O)C2CC21 (centres unmarked) [Compound 024]"
  Assay System: "EGFR mutant L858R Ba/F3 cells (Homo sapiens, UniProt P00533, L858R, cells depend on it)"
  Result: "≥ 2.5 µM"

* * *

Property: GI50; scope: individual compounds
target: EGFR L858R/C797S Ba/F3 cells (Homo sapiens, UniProt P00533, C797S/L858R, cells depend on it); assay: Ba/F3 cell proliferation (Cell Titer Glo), EGFR L858R/C797S; assay type: cell-based, murine; settings: 72 hours exposure, read-out: L858R/C797S (μM), inhibitory activity against EGFR mutants

- Compound: "C=CC(=O)N1CCN(c2cc3cnc(Nc4ccc(OCCN(C)C)cc4)nc3n(C3CC(OC)C3)c2=O)c2cccc(C)c21 (stereo not shown)"
  GI50: "≤ 0.25 µM"
- Compound: "C=CC(=O)N1CCN(c2cc3cnc(Nc4cnn(CCS(C)(=O)=O)c4)nc3n(C)c2=O)c2cccc(C)c21"
  GI50: "0.25 to 0.5 µM"
- Compound: "C=CC(=O)Nc1ccccc1Oc1cc2cnc(Nc3ccc(N4CCN(C)CC4)cc3)nc2n(C2CCCN(C(C)=O)C2)c1=O (stereo not shown)"
  GI50: "≥ 2.5 µM"
- Compound: "C=CC(=O)N1CCN(c2cc3cnc(N)nc3n(-c3cccc(Cl)c3)c2=O)c2cccc(C)c21"
  GI50: "0.25 to 0.5 µM"
- Compound: "C=CC(=O)N1CCN(c2cc3cnc(Nc4ccc(N5CCN(C)CC5)cc4)nc3n(C)c2=O)c2cccc(N)c21"
  GI50: "≤ 0.25 µM"
- Compound: "C=CC(=O)N1CCN(c2cc3cnc(N)nc3n(-c3ccc(OC4COC4)cc3)c2=O)c2cccc(C)c21"
  GI50: "0.25 to 0.5 µM"
- Compound: "C=CC(=O)N1CCN(c2cc3cnc(Nc4ccc(OCCN(C)C)cc4)nc3n(C)c2=O)c2cccc(O)c21"
  GI50: "≤ 0.25 µM"
- Compound: "C=CC(=O)N1CCN(c2cc3cnc(NC4CC4)nc3n(C3CCOCC3)c2=O)c2cccc(C)c21"
  GI50: "≤ 0.25 µM"
- Compound: "C=CC(=O)Nc1ccccc1Cc1cc2cnc(Nc3ccc(N4CCN(C)CC4)cc3)nc2n(C)c1=O"
  GI50: "0.5 to 2.5 µM"
- Compound: "C=CC(=O)N1CCN(c2cc3cnc(Nc4ccc(OC5CN(C)C5)cc4)nc3n(C)c2=O)c2cccc(C)c21"
  GI50: "≤ 0.25 µM"
- Compound: "C=CC(=O)N1CCN(c2cc3cnc(N)nc3n([C@H]3CC[C@@](C)(O)CC3)c2=O)c2cccc(C)c21"
  GI50: "≤ 0.25 µM"
- Compound: "C=CC(=O)N1CCN(c2cc3cnc(N)nc3n(-c3cccc(O)c3)c2=O)c2cccc(C)c21"
  GI50: "0.5 to 2.5 µM"
- Compound: "C=CC(=O)N1CCN(c2cc3cnc(Nc4ccc(N5CCN(C)CC5)cc4)nc3n(C)c2=O)C(=O)C1"
  GI50: "≥ 2.5 µM"
- Compound: "C=CC(=O)N1CCN(c2cc3cnc(Nc4cc5n(c4)CCN(C)C5=O)nc3n(C)c2=O)c2cccc(C)c21"
  GI50: "≤ 0.25 µM"
- Compound: "C=CC(=O)N1CC(C)N(c2cc3cnc(Nc4ccc(N5CCN(C)CC5)cc4)nc3n(C)c2=O)C(C)C1 (stereo not shown)"
  GI50: "≥ 2.5 µM"
- Compound: "C=CC(=O)N1CCN(c2cc3cnc(Nc4cc5c(cc4F)CCN(C)C5)nc3n(C)c2=O)c2cccc(C)c21"
  GI50: "≤ 0.25 µM"
- Compound: "C=CC(=O)N1CCN(c2cc3cnc(Nc4ccc(N5CCN(C)CC5)cc4)nc3n(C3CC(O)C3)c2=O)c2cccc(C)c21 (stereo not shown)"
  GI50: "≤ 0.25 µM"
- Compound: "C=CC(=O)N1CCN(c2cc3cnc(Nc4ccc(N5CCN(C)CC5)cc4F)nc3n(C)c2=O)c2cccc(C)c21"
  GI50: "≤ 0.25 µM"
- Compound: "C=CC(=O)N1CCC(c2cc3cnc(Nc4cnn(CCO)c4)nc3n(C)c2=O)c2ccccc21 (stereo not shown)"
  GI50: "≤ 0.25 µM"
- Compound: "C=CC(=O)N1CCN(c2cc3cnc(Nc4ccc(OCCN(C)C)cc4)nc3n(-c3cccnc3)c2=O)c2cccc(C)c21"
  GI50: "≤ 0.25 µM"
- Compound: "C=CC(=O)N1CCN(c2cc3cnc(N)nc3n(-c3cccc(OC)c3)c2=O)c2cccc(C)c21"
  GI50: "0.25 to 0.5 µM"
- Compound: "C=CC(=O)N1CCN(c2cc3cnc(Nc4ccc(N5CCN(C)CC5)nc4)nc3n(C)c2=O)c2cccc(C)c21"
  GI50: "≤ 0.25 µM"
- Compound: "C=CC(=O)N1CCN(c2cc3cnc(Nc4ccc(OCCN(C)C)cc4)nc3n(C)c2=O)c2cccc(C)c21"
  GI50: "≤ 0.25 µM"
- Compound: "C=CC(=O)N1CCN(c2cc3cnc(NC4CC4)nc3n(C3CCN(C)CC3)c2=O)c2cccc(C)c21"
  GI50: "≤ 0.25 µM"
- Compound: "C=CC(=O)N1CCN(c2cc3cnc(Nc4cccc(N5CCS(=O)(=O)CC5)c4)nc3n(C)c2=O)c2cccc(C)c21"
  GI50: "≤ 0.25 µM"
- Compound: "C=CC(=O)N1CCN(c2cc3cnc(N)nc3n([C@H]3CC[C@H](OC)CC3)c2=O)c2cccc(C)c21"
  GI50: "≤ 0.25 µM"
- Compound: "C=CC(=O)N1CCN(c2cc3cnc(Nc4ccc(OCCN(C)C)cc4OC)nc3n(C)c2=O)c2cccc(C)c21"
  GI50: "≤ 0.25 µM"
- Compound: "C=CC(=O)N1CCN(c2cc3cnc(N)nc3n(-c3ccc(N(C)CCN(C)C)cc3)c2=O)c2cccc(C)c21"
  GI50: "0.5 to 2.5 µM"
